Every entry's value here was drawn from the kinase profiling compilation of Christmann-Franck et al. (2016).

target entity: EPHB1 (human) (UniProt P54762)
Sequence (P54762 whole entry, looked up): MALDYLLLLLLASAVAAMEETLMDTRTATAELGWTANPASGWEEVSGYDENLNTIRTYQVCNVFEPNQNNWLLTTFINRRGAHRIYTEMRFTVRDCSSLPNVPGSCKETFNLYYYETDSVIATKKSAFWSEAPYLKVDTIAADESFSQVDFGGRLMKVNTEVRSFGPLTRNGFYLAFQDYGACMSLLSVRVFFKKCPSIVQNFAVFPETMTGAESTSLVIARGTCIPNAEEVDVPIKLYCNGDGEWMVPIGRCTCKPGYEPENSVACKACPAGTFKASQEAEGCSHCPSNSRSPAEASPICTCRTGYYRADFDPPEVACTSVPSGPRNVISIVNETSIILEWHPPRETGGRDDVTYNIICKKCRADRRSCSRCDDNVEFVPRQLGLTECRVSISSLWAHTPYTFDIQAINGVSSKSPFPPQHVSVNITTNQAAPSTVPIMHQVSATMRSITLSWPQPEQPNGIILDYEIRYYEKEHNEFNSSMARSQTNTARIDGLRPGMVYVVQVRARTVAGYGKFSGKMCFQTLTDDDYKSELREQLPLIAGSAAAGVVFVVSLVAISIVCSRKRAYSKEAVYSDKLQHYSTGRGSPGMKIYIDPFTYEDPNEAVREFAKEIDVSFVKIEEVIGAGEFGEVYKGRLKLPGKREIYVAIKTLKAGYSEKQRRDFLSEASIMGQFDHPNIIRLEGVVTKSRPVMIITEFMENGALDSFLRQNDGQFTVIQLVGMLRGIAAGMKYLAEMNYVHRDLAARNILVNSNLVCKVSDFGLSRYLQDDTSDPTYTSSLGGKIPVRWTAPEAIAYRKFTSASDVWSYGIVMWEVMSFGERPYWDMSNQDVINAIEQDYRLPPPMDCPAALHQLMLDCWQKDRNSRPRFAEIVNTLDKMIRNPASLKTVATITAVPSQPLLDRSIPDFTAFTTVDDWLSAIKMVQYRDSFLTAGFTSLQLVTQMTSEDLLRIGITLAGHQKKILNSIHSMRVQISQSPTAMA
protocol: KINOMEscan competition binding
test conditions: compound 10.0 µM
metric name: kinase still bound, per cent of control (%)

1) CNC(=O)c1cc(Oc2ccc(NC(=O)Nc3ccc(Cl)c(C(F)(F)F)c3)cc2)ccn1; 30
2) CCN1CCN(C(=O)Cc2ccc(Nc3ncc(F)c(Nc4ccc(C(=O)Nc5ccccc5Cl)cc4)n3)cc2)CC1; 66
3) O=c1cc(N2CCOCC2)oc2c(-c3cccc4c3sc3ccccc34)cccc12; 100
4) CCN(CC)CCCCNc1ncc2cc(-c3cc(OC)cc(OC)c3)c(NC(=O)NC(C)(C)C)nc2n1; 100
5) CS(=O)(=O)N1CCN(Cc2cc3nc(-c4cccc5[nH]ncc45)nc(N4CCOCC4)c3s2)CC1; 100
6) Cc1n[nH]c2ccc(-c3cncc(OC[C@@H](N)Cc4c[nH]c5ccccc45)c3)cc12; 100
7) C=CC(=O)Nc1ccc(CN(C(=O)Nc2c(Cl)c(OC)cc(OC)c2Cl)c2cc(Nc3ccc(N4CCN(C)CC4)cc3)ncn2)cc1; 100
8) COCC(=O)NC/C=C/c1ccc2ncnc(Nc3ccc(Oc4ccc(C)nc4)c(C)c3)c2c1; 100
9) C=CC(=O)Nc1cc(-n2c(=O)ccc3cnc4ccc(-c5cn[nH]c5)cc4c32)ccc1C; 94
10) CN(C)C/C=C/C(=O)Nc1ccc(C(=O)Nc2cccc(Nc3nccc(-c4cccnc4)n3)c2)cc1; 100
11) COc1ccc(N(C(=O)Oc2c(C)cccc2C)c2ccnc(Nc3ccc(N4CCN(C)CC4)cc3)n2)c(OC)c1; 0
12) NC(=O)Nc1cc(-c2cccc(F)c2)sc1C(=O)N[C@@H]1CCCNC1; 1.6
13) O=C1NC(=O)/C(=C/c2ccc3nccc(-c4ccncc4)c3c2)S1; 90

* * *

target entity: FLT3 (human)
protocol: KINOMEscan competition binding
test conditions: compound 10.0 µM
# note: boundary value 20% maps to f; kinase still bound, per cent of control below it maps to t

1) NC(=O)Nc1cc(-c2cccc(F)c2)sc1C(=O)N[C@@H]1CCCNC1; t
2) COCC(=O)NC/C=C/c1ccc2ncnc(Nc3ccc(Oc4ccc(C)nc4)c(C)c3)c2c1; f
3) CN(C)C/C=C/C(=O)Nc1ccc(C(=O)Nc2cccc(Nc3nccc(-c4cccnc4)n3)c2)cc1; f
4) O=c1cc(N2CCOCC2)oc2c(-c3cccc4c3sc3ccccc34)cccc12; f
5) CNC(=O)c1cc(Oc2ccc(NC(=O)Nc3ccc(Cl)c(C(F)(F)F)c3)cc2)ccn1; t
6) COc1cc(C(=O)N2CCC(N3CCN(C)CC3)CC2)ccc1Nc1ncc2c(n1)N(C)c1ccccc1C(=O)N2C; f
7) COc1ccc(N(C(=O)Oc2c(C)cccc2C)c2ccnc(Nc3ccc(N4CCN(C)CC4)cc3)n2)c(OC)c1; t
8) C=CC(=O)Nc1cc(-n2c(=O)ccc3cnc4ccc(-c5cn[nH]c5)cc4c32)ccc1C; t
9) CCN(CC)CCCCNc1ncc2cc(-c3cc(OC)cc(OC)c3)c(NC(=O)NC(C)(C)C)nc2n1; f
10) N#CCNC(=O)c1ccc(-c2ccnc(Nc3ccc(N4CCOCC4)cc3)n2)cc1; f

* * *

We begin with a simple list: items and their reported kinase still bound, per cent of control.
target entity: MAP3K15 (human)
protocol: KINOMEscan competition binding
test conditions: compound 10.0 µM
metric name: kinase still bound, per cent of control (%)

1. CN(C)C/C=C/C(=O)Nc1ccc(C(=O)Nc2cccc(Nc3nccc(-c4cccnc4)n3)c2)cc1; 56
2. CNC(=O)c1cc(Oc2ccc(NC(=O)Nc3ccc(Cl)c(C(F)(F)F)c3)cc2)ccn1; 100
3. O=C(Nc1cccc(Nc2ncc(Br)c(NCCc3cnc[nH]3)n2)c1)N1CCCC1; 50
4. COc1cc(C(=O)N2CCC(N3CCN(C)CC3)CC2)ccc1Nc1ncc2c(n1)N(C)c1ccccc1C(=O)N2C; 69
5. C=CC(=O)Nc1cc(-n2c(=O)ccc3cnc4ccc(-c5cn[nH]c5)cc4c32)ccc1C; 56
6. COCC(=O)NC/C=C/c1ccc2ncnc(Nc3ccc(Oc4ccc(C)nc4)c(C)c3)c2c1; 100
7. O=C1NC(=O)/C(=C/c2ccc3nccc(-c4ccncc4)c3c2)S1; 100
8. NC(=O)Nc1cc(-c2cccc(F)c2)sc1C(=O)N[C@@H]1CCCNC1; 28
9. COc1cc(N2CCN(C)CC2)ccc1Nc1ncc2c(n1)N(C)c1ccccc1C(=O)N2C; 100
10. COc1cc2ncnc(-n3nc(-c4ccccn4)nc3N)c2cc1OC; 54
11. O=c1cc(N2CCOCC2)oc2c(-c3cccc4c3sc3ccccc34)cccc12; 100
12. CS(=O)(=O)N1CCN(Cc2cc3nc(-c4cccc5[nH]ncc45)nc(N4CCOCC4)c3s2)CC1; 100
13. COc1cc2ncn(-c3cc(OCc4ccccc4C(F)(F)F)c(C(N)=O)s3)c2cc1OC; 63
14. CCN(CC)CCCCNc1ncc2c(n1)N(C)C(=O)N(c1c(Cl)c(OC)cc(OC)c1Cl)C2; 100
15. C[C@@H](Oc1cc(-c2cnn(C3CCNCC3)c2)cnc1N)c1c(Cl)ccc(F)c1Cl; 73
16. N#CCNC(=O)c1ccc(-c2ccnc(Nc3ccc(N4CCOCC4)cc3)n2)cc1; 68
17. COc1ccc(N(C(=O)Oc2c(C)cccc2C)c2ccnc(Nc3ccc(N4CCN(C)CC4)cc3)n2)c(OC)c1; 83
18. CCN1CCN(C(=O)Cc2ccc(Nc3ncc(F)c(Nc4ccc(C(=O)Nc5ccccc5Cl)cc4)n3)cc2)CC1; 100

* * *

target entity: MAPK10 (human)
protocol: KINOMEscan competition binding
test conditions: compound 10.0 µM
We begin with a simple list: items and their reported kinase still bound, per cent of control.
metric name: kinase still bound, per cent of control (%)

1) CN(C)C/C=C/C(=O)Nc1ccc(C(=O)Nc2cccc(Nc3nccc(-c4cccnc4)n3)c2)cc1; 1.3
2) C=CC(=O)Nc1cc(-n2c(=O)ccc3cnc4ccc(-c5cn[nH]c5)cc4c32)ccc1C; 1.8
3) CCN(CC)CCCCNc1ncc2c(n1)N(C)C(=O)N(c1c(Cl)c(OC)cc(OC)c1Cl)C2; 100
4) N#CCNC(=O)c1ccc(-c2ccnc(Nc3ccc(N4CCOCC4)cc3)n2)cc1; 2.4
5) COc1cc(C(=O)N2CCC(N3CCN(C)CC3)CC2)ccc1Nc1ncc2c(n1)N(C)c1ccccc1C(=O)N2C; 77
6) CS(=O)(=O)N1CCN(Cc2cc3nc(-c4cccc5[nH]ncc45)nc(N4CCOCC4)c3s2)CC1; 100
7) COc1cc2ncn(-c3cc(OCc4ccccc4C(F)(F)F)c(C(N)=O)s3)c2cc1OC; 89
8) COc1cc2ncnc(-n3nc(-c4ccccn4)nc3N)c2cc1OC; 1.4
9) C[C@@H](Oc1cc(-c2cnn(C3CCNCC3)c2)cnc1N)c1c(Cl)ccc(F)c1Cl; 80
10) O=C1NC(=O)/C(=C/c2ccc3nccc(-c4ccncc4)c3c2)S1; 26
11) O=C(Nc1cccc(Nc2ncc(Br)c(NCCc3cnc[nH]3)n2)c1)N1CCCC1; 0.1
12) Cc1n[nH]c2ccc(-c3cncc(OC[C@@H](N)Cc4c[nH]c5ccccc45)c3)cc12; 25
13) CNC(=O)c1ccc(Nc2cc(Nc3ccccc3S(=O)(=O)C(C)C)c3cc[nH]c3n2)nc1; 17

* * *

target entity: UniProt O95747
Sequence (O95747 whole entry, looked up): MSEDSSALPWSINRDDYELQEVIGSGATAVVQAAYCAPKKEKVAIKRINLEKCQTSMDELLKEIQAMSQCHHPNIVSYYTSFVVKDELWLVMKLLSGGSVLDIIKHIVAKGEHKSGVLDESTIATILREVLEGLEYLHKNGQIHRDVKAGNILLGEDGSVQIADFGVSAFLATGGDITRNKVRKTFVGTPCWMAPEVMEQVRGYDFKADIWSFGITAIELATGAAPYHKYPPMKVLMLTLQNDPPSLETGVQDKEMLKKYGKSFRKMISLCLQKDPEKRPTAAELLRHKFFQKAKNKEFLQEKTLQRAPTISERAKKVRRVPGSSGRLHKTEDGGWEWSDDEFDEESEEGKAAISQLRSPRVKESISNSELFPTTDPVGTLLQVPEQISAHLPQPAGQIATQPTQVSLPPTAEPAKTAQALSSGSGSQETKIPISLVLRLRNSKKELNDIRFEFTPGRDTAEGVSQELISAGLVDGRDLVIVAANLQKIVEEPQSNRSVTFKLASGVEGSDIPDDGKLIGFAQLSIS
protocol: KINOMEscan competition binding
test conditions: compound 10.0 µM
We begin with a simple list: items and their reported kinase still bound, per cent of control.
metric name: kinase still bound, per cent of control (%)

1. CCN(CC)CCCCNc1ncc2c(n1)N(C)C(=O)N(c1c(Cl)c(OC)cc(OC)c1Cl)C2; 100
2. CN(C)C/C=C/C(=O)Nc1ccc(C(=O)Nc2cccc(Nc3nccc(-c4cccnc4)n3)c2)cc1; 100
3. NC(=O)Nc1cc(-c2cccc(F)c2)sc1C(=O)N[C@@H]1CCCNC1; 0.45
4. COc1cc2ncnc(-n3nc(-c4ccccn4)nc3N)c2cc1OC; 42
5. COc1cc(C(=O)N2CCC(N3CCN(C)CC3)CC2)ccc1Nc1ncc2c(n1)N(C)c1ccccc1C(=O)N2C; 88
6. CCN1CCN(C(=O)Cc2ccc(Nc3ncc(F)c(Nc4ccc(C(=O)Nc5ccccc5Cl)cc4)n3)cc2)CC1; 100
7. COc1cc(N2CCN(C)CC2)ccc1Nc1ncc2c(n1)N(C)c1ccccc1C(=O)N2C; 100
8. COc1cc2ncn(-c3cc(OCc4ccccc4C(F)(F)F)c(C(N)=O)s3)c2cc1OC; 100

* * *

target entity: MST4 (human) (UniProt Q9P289)
Sequence (Q9P289 whole entry, looked up): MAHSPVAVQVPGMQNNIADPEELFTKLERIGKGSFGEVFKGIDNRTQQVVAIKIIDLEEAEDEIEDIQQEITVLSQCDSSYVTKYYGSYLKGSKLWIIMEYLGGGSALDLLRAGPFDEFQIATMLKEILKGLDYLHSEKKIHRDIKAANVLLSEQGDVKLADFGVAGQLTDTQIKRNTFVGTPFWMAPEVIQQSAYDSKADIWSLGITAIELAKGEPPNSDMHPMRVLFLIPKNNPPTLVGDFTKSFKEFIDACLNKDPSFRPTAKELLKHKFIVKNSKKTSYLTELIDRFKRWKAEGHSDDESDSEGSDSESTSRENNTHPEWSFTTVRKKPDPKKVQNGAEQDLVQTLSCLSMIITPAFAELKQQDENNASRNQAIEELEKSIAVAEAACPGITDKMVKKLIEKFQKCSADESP
protocol: KINOMEscan competition binding
test conditions: compound 10.0 µM
metric name: kinase still bound, per cent of control

1) CNC(=O)c1ccc(Nc2cc(Nc3ccccc3S(=O)(=O)C(C)C)c3cc[nH]c3n2)nc1; 19%
2) N#CCNC(=O)c1ccc(-c2ccnc(Nc3ccc(N4CCOCC4)cc3)n2)cc1; 83%
3) CS(=O)(=O)N1CCN(Cc2cc3nc(-c4cccc5[nH]ncc45)nc(N4CCOCC4)c3s2)CC1; 100%
